Reference source: ChEMBL document CHEMBL1147860

Here the recorded IC50 is given for each entry.
- Tested on: HCT-116
- protocolNotes: Cytotoxicity against HCT116 cells
- Assay type: functional, cell-based
- setupConditions: Homo sapiens
Answer in nM, number only, no unit symbol.

Please review the entries below; each comes with its answer.
> print(dat)
                            molecularstring  reportedresult
1  COCOCCCCCC[C@@H](O)[C@H]1CC[C@H]([C@H]2CC[C@H]([C@H](O)CCCCCCCCCC[C@@H](O)CC3=C[C@H](C)OC3=O)O2)O1              16
2  C[C@H]1C=C(C[C@H](O)CCCCCCCCCC[C@@H](O)[C@H]2CC[C@H]([C@H]3CC[C@H]([C@H](O)CCCCCCO)O3)O2)C(=O)O1             3.8

Could you now consider this next compound?
Prompt line: Determine its reported IC50: `C[C@H]1C=C(C[C@H](O)CCCCCCCCCC[C@@H](O)[C@H]2CC[C@H]([C@H]3CC[C@H]([C@H](O)CCCCCCCCCCCO)O3)O2)C(=O)O1`
Response line: 0.6
